# TEST: qHTS assay to identify small molecule agonists of the estrogen related receptor (ERR) signaling pathway from Tox21 library (AID 1224849); further: nearly all actives have a fitted effect of over 15% in size
# MEASUREMENT PARAMETERS: ERR reporter cell line, ONE-Glo luciferase, 18 h; at 92.4 µM (top of the series) unless noted
Active and inactive are the calls of the source. The call rests on the fitted dose curve.
Thanks in advance; please answer with one of these: 1.0 = active, 0.0 = inactive

GET /call?item= COc1ccc(C(=O)c2ccc(C)cc2)c(O)c1 returns the recorded outcome of this test.
1.0

Fill in: this test's call for CCCC(=O)OCc1ccccc1 is ___
0.0

// param item: Cc1cc(SC2=C(O)C[C@@](CCc3ccc(N)cc3)(C(C)C)OC2=O)c(C(C)(C)C)cc1CO ; yields the recorded call
0.0

Each molecule tested received a call. Report the one for CCCCCC1CCC(=O)O1 (configuration not stated) .
0.0

Assay result, entry CCCCOc1ccc(N)cc1 — outcome?
0.0

Give the logged outcome of this assay for the following molecule: Nc1ccc(-c2ccc(F)cc2)cc1
1.0

Field: outcome | Entry: CC(=O)Nc1ccn(C2COC(COC(=O)c3ccccc3)O2)c(=O)n1 (configuration not stated)
0.0

Could you please tell me the result logged for C/C(=C(\CCO)SS/C(CCO)=C(\C)N(C=O)Cc1cnc(C)nc1N)N(C=O)Cc1cnc(C)nc1N in this assay?
0.0

Called result for CC(C)C/C=C(\C=O)c1ccccc1
0.0

Tell me the recorded outcome of this test for C=CC(O)CCCCC (configuration not stated) .
0.0

Which outcome was assigned to CCCCCCCCCCCCN1CCOCC1 in this test?
0.0

Called result for CC(=O)S[C@H](C(=O)N[C@H]1Cc2ccccc2[C@H]2CCC[C@@H](C(=O)O)N2C1=O)C(C)C
0.0
